- Tested on: TNF-α
- procedureDetails: Lipopolysaccharide induced TNF-α production in Balb/cJ mice
- Type: in vivo
- experimentalConditions: Mus musculus, ip, 1.5 h; 10 mg/kg intraperitoneally, 30 min before LPS; 90 min after LPS; read-out: % inhibition of TNF-α production (plasma)
- Method: Male Balb/cJ mice (Iffa Credo, France) weighing 25-33 g were randomly grouped (n=7 in test group, 7 in positive control group, 4 in negative control group). Test compounds, as well as vehicle [0.125% carboxymethyl-cellulose (Sigma, USA)], were administered to the mice intraperitoneally. […] The plasma concentration of TNF-α was determined by sandwich ELISA, using capture and detection antibodies (R&D, USA) according to manufacturer's recommendations. […]
quantityKind: inhibition in vivo at 10 mg/kg (%)

INSERT INTO measurements (molecule, testedtarget, quantitykind, quantityunit, readoutvalue) VALUES
  ('CC[C@H]1OC(=O)[C@H](C)[C@@H](O[C@H]2C[C@@](C)(OC)[C@@H](OC(=O)CCN3CCCN(CCCN4CCCC4)CC3)[C@H](C)O2)[C@H](C)[C@@H](O[C@@H]2O[C@H](C)C[C@H](N(C)C)[C@H]2O)[C@](C)(OC)C[C@@H](C)C(=O)N[C@H](C)[C@@H](O)[C@]1(C)O [Example 34]', 'TNF-α', 'inhibition in vivo at 10 mg/kg', '%', 78),
  ('CC[C@H]1OC(=O)[C@H](C)[C@@H](O[C@H]2C[C@@](C)(OC)[C@@H](OC(=O)CCN(C)CCN(CC)CC)[C@H](C)O2)[C@H](C)[C@@H](O[C@@H]2O[C@H](C)C[C@H](N(C)C)[C@H]2O)[C@](C)(OC)C[C@@H](C)C(=O)N[C@H](C)[C@@H](O)[C@]1(C)O [Example 21]', 'TNF-α', 'inhibition in vivo at 10 mg/kg', '%', 61),
  ('CC[C@H]1OC(=O)[C@H](C)[C@@H](O[C@H]2C[C@@](C)(OC)C(OC(=O)CCN(CC)CC)[C@H](C)O2)[C@H](C)[C@@H](O[C@@H]2O[C@H](C)C[C@H](N(C)C(C)=O)[C@H]2O)[C@](C)(OC)C[C@@H](C)C(=O)N[C@H](C)[C@@H](O)[C@]1(C)O (stereo partly shown) [Example 62]', 'TNF-α', 'inhibition in vivo at 10 mg/kg', '%', 59),
  ('CC[C@H]1OC(=O)[C@H](C)[C@@H](O[C@H]2C[C@@](C)(OC)[C@@H](OC(=O)CCN(CC)CC)[C@H](C)O2)[C@H](C)[C@@H](O[C@@H]2O[C@H](C)C[C@H](N(C)C)[C@H]2O)[C@](C)(O)C[C@@H](C)NC(=O)[C@H](C)[C@@H](O)[C@]1(C)O [Example 2]', 'TNF-α', 'inhibition in vivo at 10 mg/kg', '%', 59);

Data provenance: patent US8080529B2
